# Tested on: K4 kissing-loop RNA reporter;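 note: bound reporter read as fluorescence of individual clusters on recovered sequencing chips by microscopy, with normalized cluster intensities fitted with a binding model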
# assay: apparent KD of K4 kissing-loop reporter; higher = weaker reporter binding
# conditionDetails: Eterna round: R107; input ligand: arginine 13.2 mM
Lab note: compare apparent KD of K4 kissing-loop reporter against 200 nM. Equal or greater, write T. Smaller, write F.

// query Could you tell me if the measured apparent KD of K4 kissing-loop reporter of AUUUUUUUAUCAGGAUAUUAGUGAUGGUUUGUUUUGUUAGUGAUGUUGAUAUUUGUUUUAUGUAUUUAAGAAGGGAUUGAGAUGU [seesullin] reaches 200 nM or more?
// result F

// query Hi, just wondering whether CUCGAGUGAUGUUCGAUUAUUUAUACAGAUACCAGUGAAUUUUAACACCCUUGGCAGCUGGUUGUAUCUUUGUAAUUUACACAAG [JR_ExcTheophyA_Sub005] shows apparent KD of K4 kissing-loop reporter of 200 nM or higher.
// result F

// query I'd appreciate it if you could say whether UUUUUUAAUGGAAGGAGCGCGUGGGCGCAGUGAUGUUGCGCCCGACAUCACUUCAACUUAACGCAGGUAGGUCGCCAUUAUUUUU [Arginine B (Excl) V6] has apparent KD of K4 kissing-loop reporter at least equal to 200 nM.
// result F

// query Please indicate if the recorded apparent KD of K4 kissing-loop reporter for GAGAUAGAGGCGGCCGCCACUAGUGAUGUUGGUGAUGUUAGAUAGAGAAUAGAACGGGUACUCCCUAGGACCGGGCCAGAUGGAG [#04 K4 Tryptophan B Exclusion] meets or exceeds 200 nM.
// result F

// query # bool: apparent KD of K4 kissing-loop reporter of UGGAUAUCGUUUAGUCUGGUGAGCUCAGAUACCAGACUAGCGAUGGUCCCUUGGCAGCUGAUUACGAUUGAGUGAUGUUCAAUCG [Theo A Ex t9c] >= 200 nM
// result F

// query In plain terms: is recorded apparent KD of K4 kissing-loop reporter at least 200 nM for UUUCGGUUCUGAGGAUAUUCGGACAAAUAUAGUGAUGUUGUAUAAGGAGGAGGGUGUUGGCAGUGCGGAGAAGGCAGAAGAGGAU [ExFMNB.U] ?
// result T
